experiment: activity coefficient (dimensionless); of the first substance listed, at infinite dilution; xn = mol fraction of the nth substance listed; conditions: 408.15 K; 101 kPa; Liquid; Chromatography; x1 = 0
Hi! Could you tag entries with activity coefficient below 0.4 as Criterion met, and those at or above as Criterion not met? Much appreciated.

Solved cases below.
CC(C)O [propan-2-ol] + CCCCn1cc[n+](C)c1.COP(=O)([O-])OC :: Criterion met
O [water] + CCCCn1cc[n+](C)c1.CS(=O)(=O)[O-] :: Criterion met
CC(C)CO [2-methyl-1-propanol] + CCCCn1cc[n+](C)c1.COP(=O)([O-])OC :: Criterion met
CC(C)O [propan-2-ol] + CCCCn1cc[n+](C)c1.CS(=O)(=O)[O-] :: Criterion not met
CCC(C)O (stereo not given) [butan-2-ol] + CCCCn1cc[n+](C)c1.CS(=O)(=O)[O-] :: Criterion not met

*Q* Lab log: compare recorded activity coefficient with 0.4; is it strictly lower for CCC(C)O (stereo not given) [butan-2-ol] + CCCCn1cc[n+](C)c1.[Cl-] ?
*A* Criterion not met

*Q* Lab log: compare recorded activity coefficient with 0.4; is it strictly lower for CC(C)CO [2-methyl-1-propanol] + CCCCn1cc[n+](C)c1.CS(=O)(=O)[O-] ?
*A* Criterion not met

*Q* Lab log: compare recorded activity coefficient with 0.4; is it strictly lower for CCCO [propan-1-ol] + CCCCn1cc[n+](C)c1.CS(=O)(=O)[O-] ?
*A* Criterion not met

*Q* Lab log: compare recorded activity coefficient with 0.4; is it strictly lower for CO [methanol] + CCCCn1cc[n+](C)c1.COP(=O)([O-])OC ?
*A* Criterion met

*Q* Lab log: compare recorded activity coefficient with 0.4; is it strictly lower for CCCO [propan-1-ol] + CCCCn1cc[n+](C)c1.[Cl-] ?
*A* Criterion not met

###

assay: activity coefficient (dimensionless); of the first substance listed, at infinite dilution; xn = mol fraction of the nth substance listed; conditions: 368.15 K; 101 kPa; Liquid; Chromatography; x1 = 0
Binning rule for recorded activity coefficient: c1 = under 6, c2 = from 6 up to 20, c3 = 20 and over

Solved cases below.
CCOC(C)(C)C [2-ethoxy-2-methylpropane] + CCCCn1cc[n+](C)c1.CS(=O)(=O)[O-] :: c3
Cc1ccccc1 [toluene] + CCCCn1cc[n+](C)c1.CS(=O)(=O)[O-] :: c1
Cc1cccc(C)c1 [1,3-dimethylbenzene] + CCCCn1cc[n+](C)c1.[Cl-] :: c2

Now turn to the next compound.
*Q* Please report the category associated with C1CCOC1 [tetrahydrofuran] + CCCCn1cc[n+](C)c1.CS(=O)(=O)[O-] , nothing else.
*A* c1

###

test: activity coefficient (dimensionless); of the first substance listed, at infinite dilution; xn = mol fraction of the nth substance listed; conditions: 378.15 K; 101 kPa; Liquid; Chromatography; x1 = 0
# activity coefficient values compiled below
Field format: numeric only.

Here's what some known entries look like.
C1CCCCCC1 [cycloheptane] + CCCCn1cc[n+](C)c1.COP(=O)([O-])OC :: 14.3
C=CCCCCC [1-heptene] + CCCCn1cc[n+](C)c1.[Cl-] :: 79.3
C1CCCCCC1 [cycloheptane] + CCCCn1cc[n+](C)c1.[Cl-] :: 55.4

Sample C#CCCCCC [1-heptyne] + CCCCn1cc[n+](C)c1.COP(=O)([O-])OC ; activity coefficient observed: 4.7

Sample COC(C)(C)C [2-methoxy-2-methylpropane] + CCCCn1cc[n+](C)c1.[Cl-] ; activity coefficient observed: 23

Sample C#CCCCCCC [1-octyne] + CCCCn1cc[n+](C)c1.[Cl-] ; activity coefficient observed: 19.7

Sample C1CCOC1 [tetrahydrofuran] + CCCCn1cc[n+](C)c1.CS(=O)(=O)[O-] ; activity coefficient observed: 3.59

Sample CCC[N+](=O)[O-] [1-nitropropane] + CCCCn1cc[n+](C)c1.[Cl-] ; activity coefficient observed: 2.69

Sample c1ccncc1 [pyridine] + CCCCn1cc[n+](C)c1.[Cl-] ; activity coefficient observed: 1.64

Sourced from the NIST ThermoML archive (doi:10.1016/j.jct.2015.07.042)
